measurement description: Human HepG2 cell viability assay in 384 well format
Format: toxicity, cell-based
Parameters: dose 125 nL, time 70.5 hour; concentration not given beside the values
experimental conditions: HepG2 cells, read-out: Inhibition
readout name: cytotoxicity at 70.5 h (%)
Answers are plain numbers, in %.

In [3]: df
Out[3]:
                                   compound  recorded_value
0  N#CCCCS(=O)(=O)N1CCC(CSc2ccccc2)C1 (stereo unspecified)           -9.53
1  C[C@@H](NC(=O)c1cccnc1)c1onc(-c2ccccc2)c1C(=O)O           -4.96
2  O=C(Nc1cccnc1)[C@@H]1C[C@H]2OCC[C@H]2N(Cc2nccs2)C1           -6.06

Please go through the list and note cytotoxicity at 70.5 h for each compound.
1. Cc1ccc2c(c1)C(NCc1ncnn1C)CC2 (stereo unspecified)
2. Cc1cc(Cl)c(C)c(S(=O)(=O)N2CCN(Cc3ccncc3)CC2)c1Cl
3. Cc1cnn(CC2CCCN2C(=O)c2cccc3[nH]ncc23)c1 (stereo unspecified)

-5.24
-25.9
1.32

---

Consider the following compounds; for each one, report its cytotoxicity at 70.5 h.
measurement description: Human HepG2 cell viability assay in 384 well format
Assay type: toxicity, cell-based
Set-up: dose 125 nL, time 70.5 hour; concentration not given beside the values
experimental conditions: HepG2 cells, read-out: Inhibition
One number for each entry, in %.

Reference set, count: 5
In [3]: df
Out[3]:
                                   compound  recorded_value
0  N#Cc1cc(F)c(N2CCC(NS(=O)(=O)c3cccs3)CC2)c(F)c1             -20
1  OCc1csc(N2CCCC(COc3cccc(F)c3)C2)n1 (configuration not stated)           -9.22
2  COCCn1/c(=N\C(=O)CN(C)S(C)(=O)=O)sc2cccc(F)c21            20.2
3  CC(C)c1nn(C)c(N2CCOCC2)c1CNC(C)c1ccccn1 (configuration not stated)           -2.55
4  Cc1ccc(C)c(C(=O)NCC(c2cccn2C)N2CCCCCC2)c1 (configuration not stated)           -1.53

Please go through the list and note cytotoxicity at 70.5 h for each compound.
1. CCc1nnc(Nc2cc(C)nc(C3CCN(c4ncccn4)C3)n2)s1 (configuration not stated)
2. CC(C)OC(=O)CNC(=O)Nc1ccc(-c2nc(C(C)C)no2)cc1
3. CCOC(=O)NCCNC(=O)c1cc2ccccc2nc1N1CCCC1
4. Cc1ccc(C)c(OCC(O)CN(C)CC(=O)Nc2cc(C)on2)c1 (configuration not stated)
5. CN(C)CCN(Cc1ccc(Cl)cc1)C(=O)c1cnccn1
6. Cn1cnc2c1CCN(CC(=O)NC1CCCCNC1=O)C2 (configuration not stated)
7. N#Cc1cccc(CN2Cc3nccn3CC(CN3CCCC3)C2)c1 (configuration not stated)

[3.49, 2.82, 2.35, 3.48, 3.24, 15.2, 0.61]

---

measurement description: Human HepG2 cell viability assay in 384 well format
Format: toxicity, cell-based
Design: dose 125 nL, time 70.5 hour; concentration not given beside the values
experimental conditions: HepG2 cells, read-out: Inhibition
readout name: cytotoxicity at 70.5 h (%)
Numbers only, in %.

>>> df
                                   compound  recorded_value
0        Cc1cc(N(Cc2ccon2)S(C)(=O)=O)ccc1Br            17.3
1  CO[C@@H]1CCN(C(=O)c2ccsc2)[C@@H]2CN(CC3CC3)C[C@@H]21           -4.96
2        O=S(=O)(Cc1ccc(F)cc1F)NCCOc1cccnc1           -18.9
3  COCC1CN(C(=O)Nc2cc(Cl)ccc2F)CCO1 (centres undefined)           -8.58

Please go through the list and note cytotoxicity at 70.5 h for each compound.
1. Cc1noc(C)c1CNC(=O)N1Cc2ccccc2N(C)CC1C (centres undefined)
2. CCC(=O)N1CCN(c2ncnc3c(C)nn(C)c23)CC1
3. CC(C)c1cc(C(=O)N2CCCC2c2nc(-c3ccccc3)no2)[nH]n1 (centres undefined)
4. COc1c(CNC2CCOc3c(Cl)cccc32)c(C(C)C)nn1C (centres undefined)
5. O=C(COCCc1ccccc1)N1CCCC(n2cncn2)C1 (centres undefined)
6. COC(=O)C(NC(=O)c1ccc(N(C)C)nc1)c1ccccc1 (centres undefined)
7. Cc1cccnc1CN1CCN(C(=O)[C@@]23CNC[C@@H]2CN(C)C3)CC1

1: 7.21; 2: 15.4; 3: -0.676; 4: 11.4; 5: 1.67; 6: -8.4; 7: -8.36

Please go through the list and note cytotoxicity at 70.5 h for each compound.
1. O=C(O)c1c(-c2cncnc2)ncc2c1CCN(Cc1ccco1)C2
2. CCOC(=O)CNC(=O)NCc1cccn1Cc1ccccc1C
3. CCCS(=O)(=O)N1CCOC2(CCCN(c3ccc(C)nn3)C2)C1 (centres undefined)
4. CCNC(c1cccnc1)c1ccc(F)c(C)c1 (centres undefined)

1: 24.2; 2: -17.6; 3: -6.62; 4: 1.17

Please go through the list and note cytotoxicity at 70.5 h for each compound.
1. Cc1ccsc1[C@@H]1CCN(C(=O)CCc2nc3ccccc3[nH]2)C[C@H]1O
2. COc1ccccc1C(=O)N1CCC(O)(c2cccc(C)c2C)CC1
3. Cc1ccc(-c2ccc(C3CNCCO3)nc2)cc1 (centres undefined)
4. c1cnnc(N2CCCC(NCc3nnc(-c4ccco4)o3)C2)c1 (centres undefined)
5. CNC(=O)COC(=O)c1ccn(-c2ccc(Cl)c(Cl)c2)n1
6. Cc1cc(=O)c(C(=O)N2CCC(C(O)Cc3ccccc3)CC2)c(C)[nH]1 (centres undefined)
7. CC(C(=O)N1CCCN(Cc2cnn(C)c2)CC1)n1ccnc1 (centres undefined)

5.42
11.7
-2.39
3.16
24.2
-14.4
23.2

Please go through the list and note cytotoxicity at 70.5 h for each compound.
1. Cc1nc(-c2ccncc2)ncc1C(C)NC(=O)CN1CCCCC1 (centres undefined)
2. CC(=O)NCCNC(=O)CN1CCN(Cc2nccn2C)C(C)C1 (centres undefined)

1: -7.41; 2: -2.6

---

Consider the following compounds; for each one, report its cytotoxicity at 70.5 h.
measurement description: Human HepG2 cell viability assay in 384 well format
Format: toxicity, cell-based
Set-up: dose 125 nL, time 70.5 hour; concentration not given beside the values
experimental conditions: HepG2 cells, read-out: Inhibition
One number for each entry, in %.

Please go through the list and note cytotoxicity at 70.5 h for each compound.
1. CCN(Cc1cnn(C)c1)S(=O)(=O)c1ccc(NC(=O)C(C)(C)C)cc1
2. CCn1ccnc1CN(C)Cc1nc(CCC(C)C)no1
3. Cc1nc(CN2CCC(O)(c3ccccc3F)CC2)c2ccccn12
4. O=C(c1ncccn1)N1C[C@@H]2COC[C@]2(COCc2cccnc2)C1
5. Cc1cc(C(=O)NCCN2CCCCC2)nn1C(C)(C)C

1: 2.92; 2: 1.4; 3: 11.2; 4: -5.13; 5: -18

Please go through the list and note cytotoxicity at 70.5 h for each compound.
1. Cc1[nH]c2ccc(C(=O)N3C[C@@H](O)[C@H](N4CCOCC4)C3)cc2c1C
2. CCn1c(C)nnc1SCCNC(=O)Cn1cnc2ccccc2c1=O
3. Cc1noc(C)c1CN1C[C@@H]2C[C@@H](C)O[C@@H]2C1
4. CN1CC2(CCN(C(=O)c3cccnc3)CC2)c2cccc(F)c21

1: -1.3; 2: -4.84; 3: -3.08; 4: -0.505

Please go through the list and note cytotoxicity at 70.5 h for each compound.
1. Cc1occc1CNC(=O)C1(C)CCCN(C(=O)c2ccccc2)C1 (centres undefined)
2. COCCO[C@H]1COCCN(C2CCN(C)CC2)C1
3. CCc1ccccc1OC1CN(C(=O)c2cccs2)C1
4. CNC(=O)Cc1ccc(NC(=O)NC(C)C(C)C)cc1 (centres undefined)
5. CCNc1nc(N(C)C)nc(-n2cnc(SC)n2)n1
6. c1ccc(CN2CC[C@H]3CO[C@H](CNc4ncccn4)[C@H]3C2)nc1
7. COc1cc(OC)cc(-c2noc(CC(N)c3ccccc3)n2)c1 (centres undefined)
8. N#Cc1cnc(N2CCC3(CC2)OCCO3)nc1N

0.298
12.5
7.24
-15.4
-12
-0.901
-5.26
-5.59

---

Consider the following compounds; for each one, report its cytotoxicity at 70.5 h.
measurement description: Human HepG2 cell viability assay in 384 well format
Format: toxicity, cell-based
Set-up: dose 125 nL, time 70.5 hour; concentration not given beside the values
experimental conditions: HepG2 cells, read-out: Inhibition
Numbers only, in %.

Reference set, count: 3
>>> df
                                   compound  recorded_value
0  Cc1c(CN2CCCC2(C)C(=O)NC2CCCC2)cnn1C (stereo unspecified)            5.02
1  COc1cccc2[nH]cc(CCNC(=O)N3CCCC3CO)c12 (stereo unspecified)            2.83
2         O=C(Nc1ccccc1)c1ccc(NCc2nccs2)nn1             -10

Please go through the list and note cytotoxicity at 70.5 h for each compound.
1. CN(C)CCN1CCO[C@H]2CN(C(=O)C3CCOCC3)C[C@H]21
2. COc1ccc(C(C)NCc2ccc(OC)c(OC)c2OC)cc1F (stereo unspecified)
3. CCN1Cc2ccccc2CC2(CCN(CC(=O)O)CC2)C1=O

[-4.53, 31.6, 15.3]

Please go through the list and note cytotoxicity at 70.5 h for each compound.
1. CCCc1nc2c(c(C)c(C)n2Cc2ccncc2)c(N)c1CC
2. CC1CN(C)c2ccccc2N(C(=O)c2c[nH]c(C(C)C)n2)C1 (stereo unspecified)
3. N#Cc1cn(C2CC2)c(=O)n(Cc2cc(-c3cccs3)on2)c1=O

1: 53.6; 2: 31.3; 3: -6.97

Please go through the list and note cytotoxicity at 70.5 h for each compound.
1. O=C1N(CC2CCC2)CCCC12CCN(S(=O)(=O)c1cccnc1)C2 (stereo unspecified)
2. Cc1cnc(CN2CCCC(c3cc(C(F)(F)F)[nH]n3)C2)cn1 (stereo unspecified)

1. -4.23
2. -1.33
